- Assay explanation: Cytotoxicity against human BJ cells assessed as cell growth inhibition at 10 uM relative to control
- Format: toxicity, cell-based
- Condition: read-out: GI
# maps each entry to its inhibition at 10 µM
Reported endpoint: inhibition at 10 µM (%)

- CCC1=C(C)CN(C(=O)NCCc2ccc(S(=O)(=O)NC(=O)N[C@H]3CC[C@H](C)CC3)cc2)C1=O [GLIMEPIRIDE]: 35.8
- CCOC(=O)C1=C(C)NC(C)=C(C(=O)OCC)C1c1cccc2c1OCO2: 34.5
- C[C@H]1O[C@H](O[C@H]2[C@H](O)[C@@H](O)[C@@H](O[C@H]3[C@H](O)[C@@H](O)C(O)O[C@@H]3CO)O[C@@H]2CO)[C@H](O)[C@@H](O)[C@@H]1N[C@H]1C=C(CO)[C@@H](O)[C@H](O)[C@H]1O (some centres undefined): 47.8
- COc1cccc2c1C(=O)c1c(O)c3c(c(O)c1C2=O)C[C@@](O)(C(=O)CO)C[C@@H]3O[C@H]1C[C@H](N)[C@H](O)[C@H](C)O1: 45.8

---

- Target system: voltage dependent L-type calcium channel (Rattus norvegicus, UniProt P22002+P27732+Q02485)
- Assay explanation: Inhibition of voltage dependent L-type calcium channel in rat A7R5 cells
pIC50: −log10 of the molar value.
Reported endpoint: pIC50

* CCOC(=O)C1=C(C)NC(C)=C(C(=O)OCC)C1c1cccc2c1OCO2 | 4.90

---

- Assay explanation: Cytotoxicity against human THLE-2 cells assessed as cell growth inhibition at 10 uM relative to control
- Format: toxicity, cell-based
- Condition: read-out: GI
Reported endpoint: inhibition at 10 µM (%)

• CCC1=C(C)CN(C(=O)NCCc2ccc(S(=O)(=O)NC(=O)N[C@H]3CC[C@H](C)CC3)cc2)C1=O [GLIMEPIRIDE] = 28.8
• CCOC(=O)C1=C(C)NC(C)=C(C(=O)OCC)C1c1cccc2c1OCO2 = 18.3
• COc1cccc2c1C(=O)c1c(O)c3c(c(O)c1C2=O)C[C@@](O)(C(=O)CO)C[C@@H]3O[C@H]1C[C@H](N)[C@H](O)[C@H](C)O1 = 35.6
• C[C@H]1O[C@H](O[C@H]2[C@H](O)[C@@H](O)[C@@H](O[C@H]3[C@H](O)[C@@H](O)C(O)O[C@@H]3CO)O[C@@H]2CO)[C@H](O)[C@@H](O)[C@@H]1N[C@H]1C=C(CO)[C@@H](O)[C@H](O)[C@H]1O (some centres undefined) = 19.1

---

# Lookup of reported Activity keyed by entry
- Assay explanation: Toxicity in high fat diet-STZ-induced diabetic Swiss albino mouse model assessed as changes in body weight at 0.2 mmol/Kg/day, po administered for 14 days (reference value: 26.6 to 27.8 g)
- Format: organism-based
- Condition: in vivo, 336 h, time 14 day
Reported endpoint: Activity (g)

• CCOC(=O)C1=C(C)NC(C)=C(C(=O)OC)C1c1ccc2c(c1)OCCO2 (centres undefined) = 27.5
• CC1=C(C(=O)OC(C)C)C(c2cccc3c2OCO3)C(C(=O)OC(C)C)=C(C)N1 = 28.9
• CC1=C(C(=O)OCc2ccccc2)C(c2ccc3c(c2)OCO3)C(C(=O)OCc2ccccc2)=C(C)N1 = 27
• CCOC(=O)C1=C(C)NC(C)=C(C(=O)OCc2ccccc2)C1c1cccc2c1OCO2 (centres undefined) = 27.2
• COC(=O)C1=C(C)NC(C)=C(C(=O)OC(C)(C)C)C1c1ccc2c(c1)OCO2 (centres undefined) = 29.1
• CCOC(=O)C1=C(C)NC(C)=C(C(=O)OCCOC)C1c1cccc2c1OCO2 (centres undefined) = 27.2
• CCOC(=O)C1=C(C)NC(C)=C(C(=O)OCC)C1c1ccc2c(c1)OCCO2 = 26.8
• COC(=O)C1=C(C)NC(C)=C(C(=O)OC)C1c1cccc2c1OCO2 = 26.6
• CCOC(=O)C1=C(C)NC(C)=C(C(=O)OCc2ccccc2)C1c1ccc2c(c1)OCO2 (centres undefined) = 27.3
